We begin with a simple list: items and their reported growth.
# Test system: OVCAR-5 ovarian
# protocol details: NCI-60 one-dose screen, 48 h (100 = growth as untreated, 0 = no growth, -100 = all killed)
# condition label: 10 µM unless noted
This is part of a sample that, as a whole, favours compounds with a hit. Of some 83,000 tested, about 20% had one in any assay.

- compound structure string: "C=C(COC(C)=O)[C@H]1CC/C(C)=C/CC/C(C)=C/CC[C@@]2(C)O[C@H]2C1"
  scale unit: "%"
  growth: 99.2
- compound structure string: "O=S(=O)(Nc1ccc2ccccc2c1)N1CCCCC1"
  scale unit: "%"
  growth: 79.1
- compound structure string: "Cc1cc(O)ccc1Sc1ccccc1[N+](=O)[O-]"
  scale unit: "%"
  growth: 99.6
- compound structure string: "COc1ccc2c(c1)sc1nc(-c3ccccc3)c(-c3cccc4ccccc34)n12"
  scale unit: "%"
  growth: 44.7
- compound structure string: "COc1ccccc1CNCCCN1C(=O)c2ccc3c4c(ccc(c24)C1=O)C(=O)N(CCCNCCCN)C3=O"
  scale unit: "%"
  growth: 37.9
